Would you kindly list TGI for each of these molecules?
Tested on: SR leukemia
measurement_protocol: NCI tumour cell line growth inhibition, 48 h

// query TGI value for entry `COC(=O)c1ccccc1NC(=O)C(=O)CC(=O)c1ccccc1NC1=CC(=O)C(=O)c2ccccc21`
// result > 100 µM

// query I would be grateful if you could share the reported TGI for `COc1ccc(C(=O)N2CCN(c3ccc4c(c3)OCC(=O)N4)CC2)cc1` .
// result > 100 µM

// query Report TGI for `Cc1ccc(-c2ccc(Nc3c4ccccc4nc4ccccc34)cc2)cn1` please.
// result 6.56 µM

// query # get_value(readout='TGI', item= `CC(C)(C)c1cc(-c2ccc(-c3cc(C(C)(C)C)c(O)c(C(C)(C)C)c3)cc2)cc(C(C)(C)C)c1O` )
// result > 100 µM

// query Query (molecule): CC1(C)OCC2OC3([C@H](O)CCO)OC(C)(C)OC3C2O1 (some centres not stated) ; field requested: TGI
// result > 100 µM

// query Fill blank: measured TGI of the molecule `COC(=O)NCCc1[nH]nc2c1C(=O)C=C(OC)C2=O` is ____.
// result 36.6 µM

// query Quick check: TGI of `COc1cc(NN=C(c2ccc(O)cc2)c2ccc(O)cc2)c([N+](=O)[O-])cc1[N+](=O)[O-]` ?
// result > 100 µM

// query Dear colleague, I am looking for the recorded TGI of the following molecule: `CCCCn1c2c(c3ccccc3c1=O)C(=O)c1ccccc1-2`
// result > 100 µM

// query What TGI value was documented for this molecule, `COc1ccc(/C=C(/C(=O)N2CCCC2)c2cc(OC)c(OC)c(OC)c2)cc1N` ?
// result > 100 µM

// query Would you kindly share the measured TGI for `c1ccc2c(c1)CCc1c-2n(CCN2CCCCC2)c2ccccc12` ?
// result 32.3 µM

// query TGI value for entry `COC(=O)c1c2c(c(C)[n+]([O-])c1C)C(=O)C=C(NCc1cccc(OC)c1)C2=O`
// result 8.11 µM

// query For `COc1ccc2cc(C(=O)/C=C/c3cccc(Cl)c3Cl)ccc2c1` , what is its reported TGI?
// result > 100 µM

// query GET /values?readout=TGI&item= `O=c1c2cc(Br)ccc2oc2nc3n(c(=O)c12)CCCS3`
// result > 100 µM

// query For the molecule shown here, `COc1ccc(-c2cnc(-c3ccc(F)cc3)[nH]2)cc1` , give the reported TGI.
// result 6.27 µM

// query I am curious: what TGI value has been reported for `CC(=O)Oc1ccn2nc(C)c(Br)c2c1Br` ?
// result > 100 µM

// query What does the data say about its TGI? Entry: `Cc1cc(O)c2c(c1)C(=O)c1cc(O)cc(O)c1C2=O`
// result 68 µM

// query I have this molecule here, `C/C=C(/C)C(=O)O[C@@H]1c2c(C)coc2C[C@H]2CC[C@H](O)[C@H](C)[C@]21C` , and I need its recorded TGI.
// result > 100 µM

// query Which TGI is listed for `COc1cc2c3c(n(CCCN)c(=O)c2cc1OC)-c1ccc(F)cc1C3=O` ?
// result 1.14 µM

// query So what's the measured TGI for this one? `COC(=O)c1ccc2n1C1CC3CC(CC2C3)C1`
// result > 100 µM

// query Please give the measured TGI for this molecule: `CC(=O)O[C@H]1[C@@H]2[C@@H]3[C@@H](C[C@H]1C)[C@@H](C)CO[C@@]1(C)CC/C=C(/C)C[C@@H]2O[C@@H]31`
// result > 100 µM

// query Returns the measured TGI for the input molecule. Input: `O=S(=O)(O)CCS`
// result > 100 µM

// query Fill blank: measured TGI of the molecule `O=C1/C(=C/c2ccccc2)SC(=Nc2ccccc2)N1Nc1ccccc1` is ____.
// result > 100 µM
